Where these numbers come from: PubChem BioAssay (NCATS)

target: Dual specificity protein kinase CLK4 (Homo sapiens); experiment: qHTS Assay for Inhibitors of CDC-like Kinase 4 (ADP-Glo Assay) (AID 1771); conditions: recombinant CLK4, ADP-Glo luminescence; series mostly up to 80 µM; also: nearly all actives have a fitted effect of over 70% in size
Inconclusive results are not listed. Calls of active or inactive are those of the source. Calls follow the shape of the dose curve; as a rule, active = well fitted inhibition curve with a large enough effect; inconclusive = small, poorly fitted or top-dose-only effect; inactive = flat fitted curve, though single readings scatter.
Field 'call' accepts active, inactive

• COc1ccc(-n2c(=O)c(-c3cccc(F)c3)nc3cncnc32)cc1 = inactive
• CCNc1ncc2nc(-c3ccc(OC)cc3)c(=O)n(Cc3cccs3)c2n1 = inactive
• N#Cc1ccccc1-c1ccc2ncnc(NC3CC3)c2c1 = active
• c1cncc(-c2nc(NCc3cccs3)c3ccccc3n2)c1 = active
• COc1ncc2nc(-c3ccc(Cl)cc3)c(=O)n(CCC#N)c2n1 = inactive
• COc1ccccc1-c1ccc2ncnc(NCCN3CCOCC3)c2c1 = active
• N#Cc1cccc(-c2nc3cnc(N4CCOCC4)nc3n(Cc3ccc(F)cc3)c2=O)c1 = inactive
• COc1ccccc1CNc1ccnc(-c2cccc(C#N)c2)n1 = active
• Cc1nc2cnc(N(C)C)nc2n(-c2ccccc2)c1=O = inactive
• COc1ccc(-n2c(=O)c(-c3ccc(F)cc3)nc3cncnc32)cc1 = inactive

Next item in the queue.
What was the test verdict on COc1ccc(-n2c(=O)c(-c3cn(C)c4ccccc34)nc3cnc(N4CCNCC4)nc32)cc1 ?
inactive

###

assay: AP1 Signaling Pathway (AID 357); details: ME-180 AP-1-bla reporter, EGF-induced, beta-lactamase ratio, 5 h; at 17.2 µM (top of the series);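 also: ME-180 reporter cells stimulated with EGF at its EC50 level; % is scaled to controls: 0 for no effect and ±100 for the full control effect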
Inconclusive results are not listed.
Each entry below carries its reported activity change, negative = inhibition.
Give the number; % is assumed, so skip it.

* CCCN(CCC)C(=O)[C@@H](CCC(=O)O)NC(=O)c1ccccc1 | 0.378
* CC(=O)OCC1=C(C(=O)O)N2C(=O)[C@@H](NC(=O)Cc3cccs3)[C@@H]2SC1 | 7.41
* O=C(C1CCCCC1)N1CC(=O)N2CCc3ccccc3[C@@H]2C1 | 6.31

Bench note: what activity change, negative = inhibition did CC1=C(C(=O)O)N2C(=O)[C@@H](NC(=O)[C@@H](N)c3ccccc3)[C@@H]2SC1 show?
16.3

Bench note: what activity change, negative = inhibition did CCN(CC)CCC[C@H](C)Nc1c2ccc(Cl)cc2nc2ccc(OC)cc12 show?
28.6

Bench note: what activity change, negative = inhibition did CCn1cc(C(=O)O)c(=O)c2cc(F)c(N3CCN[C@@H](C)C3)c(F)c21 show?
-0.628

Bench note: what activity change, negative = inhibition did CN1C(=O)CC[C@@H]1c1cccnc1 show?
10.4

Bench note: what activity change, negative = inhibition did Cc1cccc(C)c1OC[C@H](C)N show?
5.64

Bench note: what activity change, negative = inhibition did CCCN[C@@H](C)C(=O)Nc1ccccc1C show?
-5.22

Bench note: what activity change, negative = inhibition did C[C@@H]1c2cccc(O)c2C(O)=C2C(=O)[C@@]3(O)C(O)=C(C(N)=O)C(=O)[C@@H](N(C)C)[C@@H]3[C@@H](O)[C@@H]21 show?
-18.8

Bench note: what activity change, negative = inhibition did CC(C)(C)NC[C@H](O)c1cc(O)cc(O)c1 show?
-14.7

Bench note: what activity change, negative = inhibition did CC(C)NC[C@H](O)c1cc(O)cc(O)c1 show?
-17.9

Bench note: what activity change, negative = inhibition did C[C@@H](C(=O)O)c1cccc(C(=O)c2ccccc2)c1 show?
5.98

Bench note: what activity change, negative = inhibition did c1ccc([C@@H]2CN3CCSC3=N2)cc1 show?
0.374

Bench note: what activity change, negative = inhibition did C[C@@]12CCC(=O)C=C1CC[C@@H]1[C@@H]2[C@H](O)C[C@]2(C)[C@@H]1CC[C@]2(O)C(=O)CO show?
1.82

Bench note: what activity change, negative = inhibition did COc1cc(=O)n(C)c2c(OC[C@@H](O)C(C)(C)O)cccc12 show?
11.5

Bench note: what activity change, negative = inhibition did CN(Cc1cnc2nc(N)nc(N)c2n1)c1ccc(C(=O)N[C@H](CCC(=O)O)C(=O)O)cc1 show?
13.9

Bench note: what activity change, negative = inhibition did C[C@@H]1COc2c(N3CCN(C)CC3)c(F)cc3c(=O)c(C(=O)O)cn1c23 show?
-1.23

Bench note: what activity change, negative = inhibition did CN(C)CCO[C@](C)(c1ccccc1)c1ccccn1 show?
4.7

Bench note: what activity change, negative = inhibition did CC(C)(Oc1ccc([C@@H]2CC2(Cl)Cl)cc1)C(=O)O show?
-1.19

Bench note: what activity change, negative = inhibition did CN(C)[C@@H]1C(=O)C(C(N)=O)=C(O)[C@]2(O)C(=O)C3=C(O)c4c(O)ccc(Cl)c4[C@H](O)[C@H]3C[C@@H]12 show?
-2.16

Bench note: what activity change, negative = inhibition did N[C@@H](CO)C(=O)NNCc1ccc(O)c(O)c1O show?
2.07

###

test system: W2; assay: qHTS profiling for inhibitors of Plasmodium falciparum proliferation (AID 504749); also: nearly all actives have a fitted effect of over 60% in size; conditions: P. falciparum in erythrocytes, SYBR Green DNA, 72 h; series mostly up to 12.8 µM
Records with an inconclusive call do not appear. The source made the active and inactive calls. Calls follow the shape of the dose curve; as a rule, active = well fitted inhibition curve with a large enough effect; inconclusive = small, poorly fitted or top-dose-only effect; inactive = flat fitted curve, though single readings scatter.
Field 'call' accepts active, inactive

Solved entries (count: 5):
* C[C@H](NCCc1ccc(O)cc1)[C@@H](O)c1ccc(O)cc1 | inactive
* CCN1C(=O)N[C@@H](c2ccccc2)C1=O | inactive
* O=C(O)/C=C\c1ccc(Cn2ccnc2)cc1 | inactive
* CCN[C@@H]1C[C@H](C)S(=O)(=O)c2sc(S(N)(=O)=O)cc21 | inactive
* CN(C)[C@@H]1C(=O)C(C(N)=O)=C(O)[C@]2(O)C(=O)C3=C(O)c4c(O)ccc(Cl)c4[C@H](O)[C@H]3C[C@@H]12 | active

What was the test verdict on C[C@@H]1c2cccc(O)c2C(O)=C2C(=O)[C@@]3(O)C(O)=C(C(N)=O)C(=O)[C@@H](N(C)C)[C@@H]3[C@@H](O)[C@@H]21 ?
active

What was the test verdict on CN(C)CC/C=C1\c2ccccc2CSc2ccccc21 ?
active

What was the test verdict on CCCN[C@@H](C)C(=O)Nc1ccccc1C ?
inactive

What was the test verdict on COc1cc(/C=C/C(=O)/C=C(O)/C=C/c2ccc(O)c(OC)c2)ccc1O ?
active

What was the test verdict on Cn1c(=O)c2c(ncn2C[C@@H](O)CO)n(C)c1=O ?
inactive

What was the test verdict on NC(N)=NC[C@@H]1COC2(CCCCC2)O1 ?
inactive

###

Target: Cytochrome P450 3A4 (Homo sapiens)
Test: qHTS Assay for Activators of Cytochrome P450 3A4 (AID 885); also: nearly all actives have a fitted effect of over 65% in size
Details: recombinant CYP3A4, Luciferin-PPXE luminescence, 60 min; series mostly up to 57.1 µM
Description: NIH Molecular Libraries Screening Centers Network [MLSCN] NIH Chemical Genomics Center [NCGC] The P450 gene superfamily is involved in the metabolism and clearance of xenobiotics. […] The luciferin is then measured by luminescence after the addition of a luciferase detection reagent. […] Inhibitors and some substrates limit the production of luciferin, and decrease measured luminescence; activators increase the production of luciferin and luminescence. […]
Calls of active or inactive are those of the source. The call rests on the fitted dose curve; in most records, active means well fitted activation curve with a large enough effect; inconclusive means small, poorly fitted or top-dose-only effect; inactive means no such curve, though single readings can be large or run the other way.
Field 'call' accepts active, inactive

* COCCNc1ncnc2ccc(-c3ccc(N(C)C)cc3)cc12 | inactive
* N#Cc1ccc(CN2CCC3(CC2)CCN(S(=O)(=O)c2ccccc2)CC3)cc1 | inactive
* COc1ccc2[nH]cc(CCNc3ncnc4ccc(-c5ccc6c(c5)OCO6)cc34)c2c1 | inactive
* CN(C)C(=O)c1ccc(-c2cncnc2NCc2ccccc2)cc1 | inactive
* CN(Cc1ccco1)c1cc(-c2cccc(NS(C)(=O)=O)c2)ncn1 | inactive
* CS(=O)(=O)Nc1cccc(-c2nccc(-n3ccnc3)n2)c1 | inactive
* O=C(Oc1ccccc1)N1CCC2(CC1)CN(c1ncccn1)C2 | active
* COCCn1c(=O)c(-c2ccc(Cl)cc2)nc2cncnc21 | inactive
* c1cncc(-c2cncnc2NCc2cccs2)c1 | inactive
* COc1ccc2c(c1)OC/C(=C/c1ccc(O)c(O)c1)C2=O | inactive

Next item in the queue.
What was the test verdict on Cc1cc(C)c(S(=O)(=O)Nc2ccccc2C(F)(F)F)c(C)c1 ?
inactive

###

assay: Stat Signaling Pathway (AID 446); details: ME-180 (cervical carcinoma) SIE beta-lactamase reporter, IL-6 stimulated, 5 h; at 7.69 µM (top of the series) unless noted;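 also: ME-180 cervical cancer cells given 40 pM IL-6 alongside compound; SIE-controlled beta-lactamase reporter measured as 460/530 nm FRET emission ratio; % is scaled to controls: 0 for no effect and ±100 for the full control effect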
Results filed as inconclusive are left out. Active and inactive are the calls of the source. Calls come from the whole dose curve; as a rule, active = well fitted curve in either direction with a large enough effect (not every such curve was filed as active); inconclusive = small, poorly fitted or top-dose-only effect, or another doubt; inactive = flat fitted curve, though single readings scatter.
readout kind: activity, negative = inhibition

- Cn1cccc1C(=O)N1CCC2(CCN(Cc3nccs3)CC2)CC1: -1.77% (inactive)
- O=c1c(-c2ccccc2)nc2cncnc2n1Cc1ccccc1Cl: 5.03% (inactive)
- O=C(c1cccc(F)c1)N1CCC2(CC1)CCN(c1ccncc1)CC2: 24% (inactive)
- COc1ccc(CNc2ccnc(-c3cccnc3)n2)c(OC)c1: -2.65% (inactive)
- COc1cccc(Cn2c(=O)c(-c3cccc(C#N)c3)nc3cnc(OC)nc32)c1: -4.38% (inactive)

Now for the compound whose activity, negative = inhibition we want.
Bench note: what activity, negative = inhibition did COc1ccccc1CN1CCCC2(CCN(S(=O)(=O)c3ccccc3)CC2)C1 show?
1.94% (inactive)
